experiment: recombinant UMI read abundance after kanamycin selection (control-corrected) (log10(CPM+1)); higher = more efficient recombination; extreme values may be limits of the assay; sequences stand for … in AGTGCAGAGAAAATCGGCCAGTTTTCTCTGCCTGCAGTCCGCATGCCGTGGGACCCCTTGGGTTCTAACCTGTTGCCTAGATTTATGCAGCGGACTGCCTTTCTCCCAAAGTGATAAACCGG…AGGTTGGTTTCACT; site = the 11-nt donor;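 note: IS621 bridge recombinase in Escherichia coli cells against a fixed T5 target plasmid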
property_label: recombinant UMI read abundance (log10)
Answers are plain numbers.

ATCCGCTCATGGACCGGTTTTCCCGGTAATCCGTATTTGCG (site ATCCGCTCTCG) | 1.19
AGGTTCCCATGGACCGGTTTTCCCGGTAATCCGTATTTGCG (site AGGTTCCCTCG) | 0.236
CTCTCTACATGGACCGGTTTTCCCGGTAATCCGTATTTGAG (site CTCACTACTCT) | 0.0192
ACATCTACATGGACCGGTTTTCCCGGTAATCCGTATTTGGG (site ACATCTACTCT) | 0.0169
CCGGTTACATGGACCGGTTTTCCCGGTAATCCGTATTTGCT (site CCGCTTACTAG) | 0

Batch lookup, recombinant UMI read abundance (log10) per entry.
1. TCCACGCCATGGACCGGTTTTCCCGGTAATCCGTATTTGTA (site ACCACGCCTTA)
2. CCGGCAGCATGGACCGGTTTTCCCGGTAATCCGTATTTGCA (site CCGGCAGCTTG)

1: 0.0141; 2: 0.255

// each sequence listed below needs its recombinant UMI read abundance (log10)
1. GGCCACGCATGGACCGGTTTTCCCGGTAATCCGTATTTGTT (site GGCCACCCTAA)
2. GTACCTTCATGGACCGGTTTTCCCGGTAATCCGTATTTGAC (site GTACCTTCTGT)

[0.023, 2.06]

Provide recombinant UMI read abundance (log10) values for the following items, in order.
1. GTAGTCGCATGGACCGGTTTTCCCGGTAATCCGTATTTGAG (site GTAGTCGCTCA)
2. TGTTCCGCATGGACCGGTTTTCCCGGTAATCCGTATTTGTC (site TGTTCCGCTGA)
3. AGGAACACATGGACCGGTTTTCCCGGTAATCCGTATTTGCC (site AGGAAGACTTG)
4. GCATGCCCATGGACCGGTTTTCCCGGTAATCCGTATTTGAT (site GCATGCCCTAT)
5. AAGTTCCCATGGACCGGTTTTCCCGGTAATCCGTATTTGTG (site ACGTTCCCTCA)
6. AGGGTCCCATGGACCGGTTTTCCCGGTAATCCGTATTTGTG (site AGGATCCCTCA)

1. 0.017
2. 1.06
3. 0
4. 0.197
5. 0
6. 0.239
